Test details: Half life in dog at 1 mg/kg, po
Format: ADME, organism-based, Canis lupus familiaris
Parameters: dose 1 mg/kg, route oral
Condition: in vivo
Reported half-life values for a set of molecules
The reply should be a number in h, with the unit left off.

Here is how some molecules turned out for half-life.
>  <Chemical structure>
CCCSc1nc(N[C@@H]2C[C@H]2c2ccc(F)c(F)c2)c2nnn([C@@H]3C[C@H](OCCO)[C@@H](O)[C@H]3O)c2n1

>  <Data value>
2.03

$$$$
>  <Chemical structure>
CCCSc1nc(N[C@@H]2C[C@H]2c2ccc(F)c(F)c2)c2nnn([C@H]3[C@H](O)[C@H](O)[C@@H](O)[C@H]3F)c2n1

>  <Data value>
1.94

$$$$
>  <Chemical structure>
CCCSc1nc(N[C@@H]2C[C@H]2c2ccc(F)c(F)c2)c2nnn([C@H]3[C@H](O)[C@H](O)[C@@H](OCCO)[C@H]3F)c2n1

>  <Data value>
2.46

$$$$

Here is the next item to consider.
Find the measured half-life of CCCSc1nc(N[C@@H]2C[C@H]2c2ccc(F)c(F)c2)c2nnn([C@@H]3C[C@H](F)[C@@H](O)[C@H]3O)c2n1 and report it.
1.21
